tested on: Human immunodeficiency virus 1; assay: Antiviral activity against wild type HIV-1 infected in human MT4 cells by MTT assay; assay type: functional, organism-based; details: Human immunodeficiency virus 1, MT4
Please use rule met for EC50 under 40 nM and rule not met for everything else, ties included.

{"compound": "Cc1nc2ccccc2c(-c2ccc3c4c(ccnc24)CCO3)c1[C@H](OC(C)(C)C)C(=O)O [BI-224436]", "answer.label": "rule met"}
{"compound": "Cc1ccc(-c2c(C)nc(C(=O)N(C)Cc3ccccc3)c(C)c2C(OC(C)(C)C)C(=O)O)cc1C (configuration not stated)", "answer.label": "rule not met"}
{"compound": "COc1ccc(Nc2nc(C)c(-c3ccc(C)c(C)c3)c(C(OC(C)(C)C)C(=O)O)c2C)cc1 (configuration not stated)", "answer.label": "rule not met"}
{"compound": "Cc1nc(NC(=O)NC2CCCCC2)c(C)c(C(OC(C)(C)C)C(=O)O)c1-c1ccc2c(c1C)CCCO2 (configuration not stated)", "answer.label": "rule met"}
{"compound": "Cc1ccc(-c2c(C)nc(NC(=O)NC3CCOCC3)c(C)c2C(OC(C)(C)C)C(=O)O)cc1C (configuration not stated)", "answer.label": "rule not met"}
{"compound": "Cc1nc(NC(=O)NC2CCCCC2)c(C)c(C(OC(C)(C)C)C(=O)O)c1-c1ccc(Cl)cc1 (configuration not stated)", "answer.label": "rule met"}
{"compound": "Cc1ccc(-c2c(C)nc(NC(=O)NC3CCCCC3)c(C)c2C(OC(C)(C)C)C(=O)O)cc1C (configuration not stated)", "answer.label": "rule met"}
{"compound": "Cc1ccc(-c2c(C)nc(NS(=O)(=O)c3cccc4ccccc34)c(C)c2C(OC(C)(C)C)C(=O)O)cc1C (configuration not stated)", "answer.label": "rule met"}
{"compound": "Cc1ccc(-c2c(C)nc(NC(=O)Nc3ccccc3)c(C)c2C(OC(C)(C)C)C(=O)O)cc1C (configuration not stated)", "answer.label": "rule met"}
{"compound": "Cc1ccc(-c2c(C)nc(NC(=O)NC3CCCC3)c(C)c2C(OC(C)(C)C)C(=O)O)cc1C (configuration not stated)", "answer.label": "rule met"}
{"compound": "Cc1nc(NC(=O)NC2CCCCC2)c(C)c(C(OC(C)(C)C)C(=O)O)c1-c1ccc(C(F)(F)F)cc1 (configuration not stated)", "answer.label": "rule not met"}
{"compound": "Cc1ccc(-c2c(C)nc(Nc3nc4ccccc4n3C)c(C)c2C(OC(C)(C)C)C(=O)O)cc1C (configuration not stated)", "answer.label": "rule not met"}
{"compound": "Cc1ccc(-c2c(C)nc(NC(=O)NC3CCCCCC3)c(C)c2C(OC(C)(C)C)C(=O)O)cc1C (configuration not stated)", "answer.label": "rule met"}
{"compound": "Cc1ccc(-c2c(C)nc(C(=O)NCc3ccccc3)c(C)c2C(OC(C)(C)C)C(=O)O)cc1C (configuration not stated)", "answer.label": "rule not met"}
{"compound": "COc1ccc(-c2c(C)nc(NC(=O)NC3CCCCC3)c(C)c2C(OC(C)(C)C)C(=O)O)cc1 (configuration not stated)", "answer.label": "rule met"}
{"compound": "Cc1ccc(-c2c(C)nc(NC(=O)NCc3ccccc3)c(C)c2C(OC(C)(C)C)C(=O)O)cc1C (configuration not stated)", "answer.label": "rule met"}
{"compound": "Cc1nc(NC(=O)NC2CCCCC2)c(C)c(C(OC(C)(C)C)C(=O)O)c1-c1ccc2c(c1)NCCO2 (configuration not stated)", "answer.label": "rule not met"}

---

# EC50 values compiled below
tested on: Human immunodeficiency virus 1; assay: Antiviral activity against HIV-1 harbouring T174I mutant infected in human MT4 cells by MTT assay; format: functional, organism-based; details: Human immunodeficiency virus 1, MT4

{"molecule": "Cc1ccc(-c2c(C)nc(NC(=O)NC3CCOCC3)c(C)c2C(OC(C)(C)C)C(=O)O)cc1C (centres undefined)", "sign": ">", "EC50 [nM]": 5000}
{"molecule": "Cc1ccc(-c2c(C)nc(NC(=O)NCc3ccccc3)c(C)c2C(OC(C)(C)C)C(=O)O)cc1C (centres undefined)", "sign": ">", "EC50 [nM]": 4000}
{"molecule": "Cc1ccc(-c2c(C)nc(NC(=O)NC3CCCCCC3)c(C)c2C(OC(C)(C)C)C(=O)O)cc1C (centres undefined)", "sign": ">", "EC50 [nM]": 1000}
{"molecule": "Cc1nc(NC(=O)NC2CCCCC2)c(C)c(C(OC(C)(C)C)C(=O)O)c1-c1ccc(Cl)cc1 (centres undefined)", "sign": "=", "EC50 [nM]": 1800}
{"molecule": "COc1ccc(-c2c(C)nc(NC(=O)NC3CCCCC3)c(C)c2C(OC(C)(C)C)C(=O)O)cc1 (centres undefined)", "sign": "=", "EC50 [nM]": 750}
{"molecule": "Cc1nc(NC(=O)NC2CCCCC2)c(C)c(C(OC(C)(C)C)C(=O)O)c1-c1ccc2c(c1)CCCO2 (centres undefined)", "sign": "=", "EC50 [nM]": 560}
{"molecule": "Cc1ccc(-c2c(C)nc(NS(=O)(=O)c3cccc4ccccc34)c(C)c2C(OC(C)(C)C)C(=O)O)cc1C (centres undefined)", "sign": "=", "EC50 [nM]": 1000}
{"molecule": "Cc1nc2ccccc2c(-c2ccc3c4c(ccnc24)CCO3)c1[C@H](OC(C)(C)C)C(=O)O", "sign": ">", "EC50 [nM]": 5000}
{"molecule": "Cc1ccc(-c2c(C)nc(NC(=O)NCCc3ccccc3)c(C)c2C(OC(C)(C)C)C(=O)O)cc1C (centres undefined)", "sign": ">", "EC50 [nM]": 2000}
{"molecule": "Cc1nc(NC(=O)NC2CCCCC2)c(C)c(C(OC(C)(C)C)C(=O)O)c1-c1ccc2c(c1C)CCCO2 (centres undefined)", "sign": "=", "EC50 [nM]": 270}
{"molecule": "Cc1ccc(-c2c(C)nc(NC(=O)NC3CCCCC3)c(C)c2C(OC(C)(C)C)C(=O)O)cc1C (centres undefined)", "sign": ">", "EC50 [nM]": 1000}
{"molecule": "Cc1nc(NC(=O)NC2CCCCC2)c(C)c(C(OC(C)(C)C)C(=O)O)c1-c1ccc(C(F)(F)F)cc1 (centres undefined)", "sign": "=", "EC50 [nM]": 7700}
{"molecule": "Cc1ccc(-c2c(C)nc(NC(=O)NC3CCCC3)c(C)c2C(OC(C)(C)C)C(=O)O)cc1C (centres undefined)", "sign": ">", "EC50 [nM]": 1000}
{"molecule": "Cc1ccc(-c2c(C)nc(NC(=O)Nc3ccccc3)c(C)c2C(OC(C)(C)C)C(=O)O)cc1C (centres undefined)", "sign": ">", "EC50 [nM]": 1000}

---

test: Cytotoxicity against human MT4 cells by MTT assay; assay type: cell-based
# CC50 values compiled below
property.label: CC50 (µM)

{"compound": "Cc1ccc(-c2c(C)nc(NC(=O)NCCc3ccccc3)c(C)c2C(OC(C)(C)C)C(=O)O)cc1C (stereo not drawn)", "numeric.readout": 11}
{"compound": "Cc1ccc(-c2c(C)nc(NC(=O)NC3CCCC3)c(C)c2C(OC(C)(C)C)C(=O)O)cc1C (stereo not drawn)", "numeric.readout": 8}
{"compound": "Cc1nc(NC(=O)NC2CCCCC2)c(C)c(C(OC(C)(C)C)C(=O)O)c1-c1ccc2c(c1)NCCO2 (stereo not drawn)", "numeric.readout": 30}

---

test: AUC in rat at 0.5 mg/kg, iv; format: ADME, organism-based; parameters: dose 0.5 mg/kg; settings: in vivo
property.label: AUC (ng·h/mL)

{"compound": "Cc1ccc(-c2c(C)nc(NC(=O)NC3CCCCC3)c(C)c2C(OC(C)(C)C)C(=O)O)cc1C (stereo unspecified)", "unit.text": "ng·h/mL", "numeric.readout": 127}

---

tested on: Human immunodeficiency virus 1; assay: Antiviral activity against wild type HIV-1 infected in human MT4 cells by MTT assay; format: functional, organism-based; settings: Human immunodeficiency virus 1, MT4
pEC50: −log10 of the molar value.

{"compound": "Cc1ccc(-c2c(C)nc(NC(=O)NCCc3ccccc3)c(C)c2C(OC(C)(C)C)C(=O)O)cc1C (stereo not drawn)", "pEC50": 7.70}
{"compound": "Cc1ccc(-c2c(C)nc(Nc3nc4ccccc4s3)c(C)c2C(OC(C)(C)C)C(=O)O)cc1C (stereo not drawn)", "pEC50": 6.46}
{"compound": "Cc1nc(NC(=O)NC2CCCCC2)c(C)c(C(OC(C)(C)C)C(=O)O)c1-c1ccc2c(c1)CCCO2 (stereo not drawn)", "pEC50": 7.68}

---

assay: Elimination half-life in rat at 0.5 mg/kg, iv or 1 mg/kg, po; assay type: ADME, organism-based; conditions: in vivo, read-out: LambdaZ (converted)

{"molecule": "Cc1ccc(-c2c(C)nc(NC(=O)NC3CCCCC3)c(C)c2C(OC(C)(C)C)C(=O)O)cc1C (stereo unspecified)", "half-life / h": 1.6}
